target: hDOR (Homo sapiens, UniProt P41143); experiment: Radioligand binding assay (Eurofins Cerep), [3H]DADLE displacement; details: Ki (nM ± SEM) DOR, Table 3-6; 3 independent experiments
Sequence (P41143 whole entry): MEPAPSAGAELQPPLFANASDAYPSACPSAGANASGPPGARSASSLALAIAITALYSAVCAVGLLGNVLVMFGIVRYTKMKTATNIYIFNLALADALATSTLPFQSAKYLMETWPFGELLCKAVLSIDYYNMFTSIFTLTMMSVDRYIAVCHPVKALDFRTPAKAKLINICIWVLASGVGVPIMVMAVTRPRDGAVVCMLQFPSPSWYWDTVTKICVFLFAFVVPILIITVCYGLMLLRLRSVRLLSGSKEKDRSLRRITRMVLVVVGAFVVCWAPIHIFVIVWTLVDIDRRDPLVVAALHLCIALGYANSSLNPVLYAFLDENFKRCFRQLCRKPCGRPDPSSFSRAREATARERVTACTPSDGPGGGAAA
Each entry below lists one item and its recorded Ki value.
endpoint_name: Ki

molecule="COCC(C(=O)OC)C1CCN(CCc2c[nH]c3ccccc23)CC1 (centres unmarked)" measured_on="hDOR (Homo sapiens, UniProt P41143)" recorded_value="> 10000 nM"
molecule=COC(=O)CN1CCN(CCc2c[nH]c3ccccc23)CC1 measured_on="hDOR (Homo sapiens, UniProt P41143)" recorded_value="> 10000 nM"

* * *

target: hKOR (Homo sapiens); experiment: Radioligand binding assay (Eurofins Cerep), [3H]U69,593 displacement; settings: read-out: Ki at hKOR
pKi: −log10 of the molar value.
endpoint_name: pKi

molecule="CC[C@@H]1CN2CCc3c([nH]c4cccc(OC)c34)[C@@H]2C[C@@H]1/C(=C\\OC)C(=O)n1cccc1 [SUSM-526]" recorded_value=4.24

* * *

Item-by-item account of Ki
molecular target: α2A adrenergic receptor (Homo sapiens); construct: Eurofins Cerep (contract screening); assay: Radioligand binding assay (Eurofins Cerep), [3H]RX 821002 displacement; details: Alpha2A Ki ± SEM (nM), Table B2; mean ± SEM, 3 independent experiments
endpoint_name: Ki

compound="COC(=O)CC1CCN2CCC(O)(c3ccccc3)CC2C1 (centres unmarked)" endpoint_name=Ki recorded_value="80 nM"
compound="COC(=O)C=C1CCN2CCC(O)(c3ccccc3)CC2C1 (centres unmarked)" endpoint_name=Ki recorded_value="95 nM"

* * *

target: hDOR (Homo sapiens); experiment: Radioligand binding assay (Eurofins Cerep), [3H]DADLE displacement; conditions: Table A1, data summary #1; read-out: DOR Ki ± SEM
endpoint_name: Ki

compound="CC[C@@H]1CN2CCc3c([nH]c4cccc(OC)c34)[C@@H]2C[C@@H]1/C(=C\\OC)C(=O)N(C)CC [SUSM-520]" measured_on="hDOR (Homo sapiens)" endpoint_name=Ki recorded_value="> 10 µM"
compound="CC[C@@H]1CN2CCc3c([nH]c4cccc(OC)c34)[C@@H]2C[C@@H]1/C(=C\\OC)C(=O)NC1CCCCC1 [SUSM-519]" measured_on="hDOR (Homo sapiens)" endpoint_name=Ki recorded_value="> 10 µM"
compound="CC[C@@H]1CN2CC[C@@]3(O)C(=Nc4cccc(OC)c43)[C@@H]2C[C@@H]1/C(=C\\OC)C(=O)OC [7-Hydroxy Mitragynine, reference compound]" measured_on="hDOR (Homo sapiens)" endpoint_name=Ki recorded_value="0.243 µM"
compound="CC[C@@H]1CN2CCc3c([nH]c4cccc(OC)c34)[C@@H]2C[C@@H]1/C(=C\\OC)C(=O)N1CCCCC1 [SUSM-518]" measured_on="hDOR (Homo sapiens)" endpoint_name=Ki recorded_value="> 10 µM"
compound="CCCN(C)C(=O)/C(=C/OC)[C@H]1C[C@H]2c3[nH]c4cccc(OC)c4c3CCN2C[C@H]1CC [SUSM-521]" measured_on="hDOR (Homo sapiens)" endpoint_name=Ki recorded_value="5.89 µM"
compound="CCNC(=O)/C(=C/OC)[C@H]1C[C@H]2c3[nH]c4cccc(OC)c4c3CCN2C[C@H]1CC [SUSM-32]" measured_on="hDOR (Homo sapiens)" endpoint_name=Ki recorded_value="> 10 µM"
compound="CCCNC(=O)/C(=C/OC)[C@H]1C[C@H]2c3[nH]c4cccc(OC)c4c3CCN2C[C@H]1CC [SUSM-27]" measured_on="hDOR (Homo sapiens)" endpoint_name=Ki recorded_value="> 10 µM"
compound=CC[C@@H]1CN2CCc3c([nH]c4cccc(OC)c34)[C@@H]2C[C@@H]1/C(=C\OC)C(=O)N(C)C1CCCC1 measured_on="hDOR (Homo sapiens)" endpoint_name=Ki recorded_value="9.75 µM"

* * *

biological target: α2C adrenergic receptor (Homo sapiens, UniProt P18825); construct: Eurofins Cerep (contract screening); test: Radioligand binding assay (Eurofins Cerep), [3H]RX 821002 displacement; conditions: Alpha2C Ki ± SEM (nM), Table B2; mean ± SEM, 3 independent experiments
Sequence (P18825 whole entry): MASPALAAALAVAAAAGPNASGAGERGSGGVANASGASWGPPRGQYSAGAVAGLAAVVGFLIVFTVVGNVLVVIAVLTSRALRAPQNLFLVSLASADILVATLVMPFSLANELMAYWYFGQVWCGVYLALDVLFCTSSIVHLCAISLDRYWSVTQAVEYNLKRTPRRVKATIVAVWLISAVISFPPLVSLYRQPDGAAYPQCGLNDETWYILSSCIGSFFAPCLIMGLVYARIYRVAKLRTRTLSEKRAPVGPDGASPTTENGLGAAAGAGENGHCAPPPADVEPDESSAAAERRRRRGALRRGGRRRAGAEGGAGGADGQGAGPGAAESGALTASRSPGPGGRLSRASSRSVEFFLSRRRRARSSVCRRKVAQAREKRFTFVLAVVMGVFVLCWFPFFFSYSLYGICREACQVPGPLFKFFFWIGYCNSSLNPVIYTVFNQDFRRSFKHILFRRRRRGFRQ
endpoint_name: Ki (nM)

compound="CC[C@@H]1CN2CCc3c([nH]c4cccc(OC)c34)[C@@H]2C[C@@H]1/C(=C\\OC)C(=O)OC [Mitragynine, mitragynine, reference compound]" unit=nM recorded_value=4090

* * *

Biological target: α2A adrenergic receptor (Homo sapiens, UniProt P08913)
Construct: Eurofins Cerep (contract screening)
Sequence (P08913 1-465): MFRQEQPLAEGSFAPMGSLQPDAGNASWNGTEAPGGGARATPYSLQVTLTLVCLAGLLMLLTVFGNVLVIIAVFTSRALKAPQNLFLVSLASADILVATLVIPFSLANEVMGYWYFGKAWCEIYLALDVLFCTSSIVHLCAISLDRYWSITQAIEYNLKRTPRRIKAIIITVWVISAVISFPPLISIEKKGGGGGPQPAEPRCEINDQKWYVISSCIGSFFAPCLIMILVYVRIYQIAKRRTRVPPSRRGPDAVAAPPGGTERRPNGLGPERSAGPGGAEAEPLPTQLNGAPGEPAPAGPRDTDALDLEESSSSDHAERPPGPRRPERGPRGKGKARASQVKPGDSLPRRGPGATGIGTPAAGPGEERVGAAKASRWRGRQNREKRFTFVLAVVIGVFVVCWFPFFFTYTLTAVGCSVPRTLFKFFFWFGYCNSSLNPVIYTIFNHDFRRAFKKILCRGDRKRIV
Experiment: Radioligand binding assay (Eurofins Cerep), [3H]RX 821002 displacement
Settings: read-out: Ki (nM ± SEM) a2A-AR; Table 3-3; 3 independent experiments
endpoint_name: Ki (nM)

smiles_code=COC(=O)CC1CCN(CCc2c[nH]c3ccccc23)CC1 unit=nM recorded_value=1840

* * *

Ki listing for selected compounds.
target: hKOR (Homo sapiens, UniProt P41145); experiment: Radioligand binding assay (Eurofins Cerep), [3H]U69,593 displacement; details: Table 3-5; 3 independent experiments; read-out: Ki (nM ± SEM) KOR
Sequence (P41145 whole entry): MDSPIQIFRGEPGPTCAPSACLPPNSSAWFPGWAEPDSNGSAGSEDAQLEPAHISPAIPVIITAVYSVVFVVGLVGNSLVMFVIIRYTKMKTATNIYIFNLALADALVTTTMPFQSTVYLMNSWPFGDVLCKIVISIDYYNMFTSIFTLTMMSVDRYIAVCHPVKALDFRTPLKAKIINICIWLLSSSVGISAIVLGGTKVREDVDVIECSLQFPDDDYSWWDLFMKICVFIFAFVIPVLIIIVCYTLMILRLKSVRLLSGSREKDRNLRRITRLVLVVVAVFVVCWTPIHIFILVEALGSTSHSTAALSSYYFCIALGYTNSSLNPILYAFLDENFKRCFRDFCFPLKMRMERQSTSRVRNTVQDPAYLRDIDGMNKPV
endpoint_name: Ki

compound="COC=C(C(=O)OC)C1CCN(Cc2c[nH]c3ccccc23)CC1 [Compound 3-57]" recorded_value="> 10000 nM"
compound="COC(=O)CC1CCN(CCc2c[nH]c3ccccc23)CC1 [Compound 3-24]" recorded_value="> 10000 nM"
compound="COC(=O)CC1CCN(CC(=O)c2c[nH]c3cccc(OC)c23)CC1 [Compound 3-63]" recorded_value="> 10000 nM"

* * *

target: hKOR (Homo sapiens); assay: Radioligand binding assay (Eurofins Cerep), [3H]U69,593 displacement; conditions: Table A1, data summary #1; read-out: KOR Ki ± SEM
pKi: −log10 of the molar value.
endpoint_name: pKi

compound="CC[C@@H]1CN2CCc3c([nH]c4cccc(OC)c34)[C@@H]2C[C@@H]1/C(=C\\OC)C(=O)N(CC)CC [SUSM-509]" recorded_value="< 5.00"
compound="CC[C@@H]1CN2CCc3c([nH]c4cccc(OC)c34)[C@@H]2C[C@@H]1/C(=C\\OC)C(=O)Nc1ccccc1 [SUSM-528]" recorded_value="< 5.00"
compound="CCNC(=O)/C(=C/OC)[C@H]1C[C@H]2c3[nH]c4cccc(OC)c4c3CCN2C[C@H]1CC [SUSM-32]" recorded_value="< 5.00"

* * *

target: hMOR (Homo sapiens, UniProt P35372); test: Radioligand binding assay (Eurofins Cerep), [3H]DAMGO displacement; conditions: Table A1, data summary #1; read-out: MOR Ki ± SEM
Sequence (P35372 whole entry): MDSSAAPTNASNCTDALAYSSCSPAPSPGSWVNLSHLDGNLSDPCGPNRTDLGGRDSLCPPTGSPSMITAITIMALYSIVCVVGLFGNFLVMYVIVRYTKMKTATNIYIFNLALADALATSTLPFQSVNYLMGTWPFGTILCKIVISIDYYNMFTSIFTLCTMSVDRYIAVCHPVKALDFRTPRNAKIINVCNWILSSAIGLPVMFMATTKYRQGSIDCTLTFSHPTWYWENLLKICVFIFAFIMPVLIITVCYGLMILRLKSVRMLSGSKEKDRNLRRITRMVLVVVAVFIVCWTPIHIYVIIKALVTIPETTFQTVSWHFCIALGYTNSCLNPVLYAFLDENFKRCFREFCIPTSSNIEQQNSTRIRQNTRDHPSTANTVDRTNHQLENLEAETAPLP
The label TRUE is reserved for Ki strictly under 4 µM; FALSE covers values equal to or above it.

smiles_code=CCCNC(=O)/C(=C/OC)[C@H]1C[C@H]2c3[nH]c4cccc(OC)c4c3CCN2C[C@H]1CC class_assignment=FALSE
smiles_code=CC[C@@H]1CN2CCc3c([nH]c4cccc(OC)c34)[C@@H]2C[C@@H]1/C(=C\OC)C(=O)Nc1ccccc1 class_assignment=FALSE
smiles_code=CC[C@@H]1CN2CCc3c([nH]c4cccc(OC)c34)[C@@H]2C[C@@H]1/C(=C\OC)C(=O)N1CCCC1 class_assignment=TRUE
smiles_code=CCNC(=O)/C(=C/OC)[C@H]1C[C@H]2c3[nH]c4cccc(OC)c4c3CCN2C[C@H]1CC class_assignment=FALSE
smiles_code=CC[C@@H]1CN2CCc3c([nH]c4cccc(OC)c34)[C@@H]2C[C@@H]1/C(=C\OC)C(=O)N(C)CC class_assignment=TRUE
smiles_code=CC[C@@H]1CN2CCc3c([nH]c4cccc(OC)c34)[C@@H]2C[C@@H]1/C(=C\OC)C(=O)n1cccc1 class_assignment=TRUE
smiles_code=CC[C@@H]1CN2CCc3c([nH]c4cccc(OC)c34)[C@@H]2C[C@@H]1/C(=C\OC)C(=O)NC1CCCCC1 class_assignment=TRUE

* * *

target: hKOR (Homo sapiens, UniProt P41145); assay: Radioligand binding assay (Eurofins Cerep), [3H]U69,593 displacement; conditions: Table A4, data summary #2; read-out: KOR Ki ± SEM
endpoint_name: Ki

molecule="CC[C@@H]1CN2CCc3c([nH]c4cccc(OC)c34)[C@@H]2C[C@@H]1/C(=C\\OC)C(=O)N(CC)CC [SUSM-509]" endpoint_name=Ki recorded_value="> 10 µM"
molecule="CCNC(=O)/C(=C/OC)[C@H]1C[C@H]2c3[nH]c4cccc(OC)c4c3CCN2C[C@H]1CC [SUSM-32]" endpoint_name=Ki recorded_value="> 10 µM"
molecule="CC[C@@H]1CN2CCc3c([nH]c4cccc(OC)c34)[C@@H]2C[C@@H]1/C(=C\\OC)C(=O)N1CCCC1 [SUSM-507]" endpoint_name=Ki recorded_value="> 10 µM"
molecule="CC[C@@H]1CN2CCc3c([nH]c4cccc(OC)c34)[C@@H]2C[C@@H]1/C(=C\\OC)C(=O)n1cccc1 [SUSM-526]" endpoint_name=Ki recorded_value="> 10 µM"
molecule="CCCNC(=O)/C(=C/OC)[C@H]1C[C@H]2c3[nH]c4cccc(OC)c4c3CCN2C[C@H]1CC [SUSM-27]" endpoint_name=Ki recorded_value="> 10 µM"
molecule="CC[C@@H]1CN2CCc3c([nH]c4cccc(OC)c34)[C@@H]2C[C@@H]1/C(=C\\OC)C(=O)NC1CCCC1 [SUSM-506]" endpoint_name=Ki recorded_value="5.85 µM"
molecule="CC[C@@H]1CN2CCc3c([nH]c4cccc(OC)c34)[C@@H]2C[C@@H]1/C(=C\\OC)C(=O)NC [SUSM-25]" endpoint_name=Ki recorded_value="> 10 µM"
molecule="CC[C@@H]1CN2CCc3c([nH]c4cccc(OC)c34)[C@@H]2C[C@@H]1/C(=C\\OC)C(=O)N(C)CC [SUSM-520]" endpoint_name=Ki recorded_value="4.78 µM"
molecule="CC[C@@H]1CN2CCc3c([nH]c4cccc(OC)c34)[C@@H]2C[C@@H]1/C(=C\\OC)C(=O)NC1CCCCC1 [SUSM-519]" endpoint_name=Ki recorded_value="2.79 µM"
